Assay: Cmax in mouse C57BL/6J brain at 3 mg/kg, po measured after 1 hrs
Type: ADME, organism-based
Property Name: Cmax (ng/g)

Smiles Notation: COc1cc([Se]C(F)(F)F)c(OC)cc1CCN.Cl
Measured: 2370

* * *

Assay: AUCinf in Wistar rat plasma at 1 mg/kg, iv measured upto 48 hrs
Assay type: ADME, organism-based

Smiles Notation: COc1cc([Se]C(F)(F)F)c(OC)cc1CCN.Cl
AUC(0-inf), ng·h/mL: 50.7

* * *

Test system: Mus musculus
Test: Psychedelic effect in C57BL/6J mouse assessed as number of head-twitch responses by visual observation at 3 mg/kg, po measured for 3 mins at 160 to 170 min
Format: functional
Details: 0.05 h
We label by threshold. Values of Activity strictly beneath 6 are condition met. Values of 6 and up are condition not met.

Compound: COc1cc(SCCCF)c(OC)cc1CCN
Class Label: condition met

Compound: COc1cc(S(=O)(=O)CF)c(OC)cc1CCN.Cl
Class Label: condition met

Compound: COc1cc([S+]([O-])C(F)F)c(OC)cc1CCN.Cl (centres undefined)
Class Label: condition met

Compound: COc1cc(S(=O)(=O)C(F)F)c(OC)cc1CCN.Cl
Class Label: condition met

Compound: COc1cc(SSC(C)(C)C)c(OC)cc1CCN.Cl
Class Label: condition met

Compound: COc1cc(SSC(F)(F)F)c(OC)cc1CCN.Cl
Class Label: condition met

Compound: COc1cc([S+]([O-])C(F)(F)F)c(OC)cc1CCN.Cl (centres undefined)
Class Label: condition not met

Compound: COc1cc([Se]C(F)(F)F)c(OC)cc1CCN.Cl
Class Label: condition not met

Compound: COc1cc(SCC(F)(F)C(F)F)c(OC)cc1CCN.Cl
Class Label: condition met

Compound: COc1cc(S(=O)(=O)C(F)(F)F)c(OC)cc1CCN.Cl
Class Label: condition not met

Compound: COc1cc(SCCC(F)F)c(OC)cc1CCN.Cl
Class Label: condition met

Compound: COc1cc(SC(F)(F)F)c(OC)cc1CCN.Cl
Class Label: condition not met

Compound: COc1cc(SC(F)F)c(OC)cc1CCN.Cl
Class Label: condition not met

* * *

Target: 5-hydroxytryptamine receptor 2A (Homo sapiens, UniProt P28223)
Sequence (P28223 whole entry): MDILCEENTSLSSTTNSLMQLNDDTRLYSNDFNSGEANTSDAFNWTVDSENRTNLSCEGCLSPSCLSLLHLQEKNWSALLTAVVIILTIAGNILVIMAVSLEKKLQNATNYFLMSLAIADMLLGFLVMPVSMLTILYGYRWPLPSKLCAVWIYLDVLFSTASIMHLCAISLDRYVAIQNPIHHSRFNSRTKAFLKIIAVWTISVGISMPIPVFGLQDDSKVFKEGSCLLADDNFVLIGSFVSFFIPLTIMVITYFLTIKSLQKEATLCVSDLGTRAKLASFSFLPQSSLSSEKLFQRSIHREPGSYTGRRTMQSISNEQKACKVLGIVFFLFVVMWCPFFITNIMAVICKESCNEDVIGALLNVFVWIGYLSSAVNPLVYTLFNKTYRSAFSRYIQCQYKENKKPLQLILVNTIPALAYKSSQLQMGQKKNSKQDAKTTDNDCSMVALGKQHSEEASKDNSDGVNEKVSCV
Assay: Agonist activity at human 5-HT2A receptor expressed in HEK293 cells assessed as IP2 production measured after 30 mins incubation by HTRF assay
Type: functional, cell-based
Details: read-out: EC50
pEC50: −log10 of the molar value.

Molecule: C#CCSc1cc(OC)c(CCN)cc1OC
Study Target: 5-hydroxytryptamine receptor 2A (Homo sapiens, UniProt P28223)
pEC50: 9.17

Molecule: COc1cc([Se]C(F)(F)F)c(OC)cc1CCN.Cl
Study Target: 5-hydroxytryptamine receptor 2A (Homo sapiens, UniProt P28223)
pEC50: 8.44

Molecule: C#CCCCSc1cc(OC)c(CCN)cc1OC
Study Target: 5-hydroxytryptamine receptor 2A (Homo sapiens, UniProt P28223)
pEC50: 8.74

Molecule: COc1cc(SCC#N)c(OC)cc1CCN
Study Target: 5-hydroxytryptamine receptor 2A (Homo sapiens, UniProt P28223)
pEC50: 8.21

Molecule: COc1cc(SC(F)(F)F)c(OC)cc1CCNCC1CC1
Study Target: 5-hydroxytryptamine receptor 2A (Homo sapiens, UniProt P28223)
pEC50: 7.32

Molecule: COc1cc(SC(C)(C)C)c(OC)cc1CCN
Study Target: 5-hydroxytryptamine receptor 2A (Homo sapiens, UniProt P28223)
pEC50: 6.82

Molecule: COc1cc(CCN)cc(OC)c1SC(F)(F)F
Study Target: 5-hydroxytryptamine receptor 2A (Homo sapiens, UniProt P28223)
pEC50: 7.39

Molecule: COc1cc(C(=O)C(C)(C)C)c(OC)cc1CCN
Study Target: 5-hydroxytryptamine receptor 2A (Homo sapiens, UniProt P28223)
pEC50: 6.07

Molecule: COc1cc(SC(F)(F)F)c(OC)cc1CC(C)N (stereo not given)
Study Target: 5-hydroxytryptamine receptor 2A (Homo sapiens, UniProt P28223)
pEC50: 8.27

Molecule: COc1cc(S(=O)(=O)C(C)(C)C)c(OC)cc1CCN
Study Target: 5-hydroxytryptamine receptor 2A (Homo sapiens, UniProt P28223)
pEC50: 6.28
